// provenance: ChEMBL document CHEMBL6109073

The following compounds each carry a recorded IC50 for Keap1/Nrf2 (Homo sapiens, UniProt Q14145).
measured-property: IC50

COc1ccc(S(=O)(=O)Nc2ccc(N[C@@H](C)CC(=O)O)c3ccccc23)cc1 : > 50 µM
C[C@@H](CC(=O)O)Nc1ccc(NS(=O)(=O)c2ccc(Cl)cc2)c2ccccc12 : > 50 µM
COc1ccc(S(=O)(=O)Nc2ccc(N[C@@H](CC(=O)O)c3ccccc3)c3ccccc23)cc1 : > 50 µM
